Molecular target: SCRIB_4, Q14160
Sequence (Q14160 1095-1204): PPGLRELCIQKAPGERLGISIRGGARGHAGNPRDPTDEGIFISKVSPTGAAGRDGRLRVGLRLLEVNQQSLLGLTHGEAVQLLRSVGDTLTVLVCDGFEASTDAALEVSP
Assay: holdup assay
Design: key: below the threshold = too weak to quantify, mostly under pKd 3.1 to 4
Details: plain residues with an end cap or a label only (N-terminal biotin on a linker: ttds)
property_measured: pKd

1) SGSRPSATVV [HPV73-E6, Q82005] | below the threshold
2) QRQARSETLV [HPV59-E6, Q81964] | below the threshold
3) RPLPRKVSQL [DOCK4, Q8N1I0] | below the threshold
4) RLQRRRETQV [HPV18-E6, P06463] | below the threshold
